Below, each entry is listed with its recorded Ki.
Molecular target: Sodium-dependent serotonin transporter (Rattus norvegicus)
Sequence (P31652 whole entry): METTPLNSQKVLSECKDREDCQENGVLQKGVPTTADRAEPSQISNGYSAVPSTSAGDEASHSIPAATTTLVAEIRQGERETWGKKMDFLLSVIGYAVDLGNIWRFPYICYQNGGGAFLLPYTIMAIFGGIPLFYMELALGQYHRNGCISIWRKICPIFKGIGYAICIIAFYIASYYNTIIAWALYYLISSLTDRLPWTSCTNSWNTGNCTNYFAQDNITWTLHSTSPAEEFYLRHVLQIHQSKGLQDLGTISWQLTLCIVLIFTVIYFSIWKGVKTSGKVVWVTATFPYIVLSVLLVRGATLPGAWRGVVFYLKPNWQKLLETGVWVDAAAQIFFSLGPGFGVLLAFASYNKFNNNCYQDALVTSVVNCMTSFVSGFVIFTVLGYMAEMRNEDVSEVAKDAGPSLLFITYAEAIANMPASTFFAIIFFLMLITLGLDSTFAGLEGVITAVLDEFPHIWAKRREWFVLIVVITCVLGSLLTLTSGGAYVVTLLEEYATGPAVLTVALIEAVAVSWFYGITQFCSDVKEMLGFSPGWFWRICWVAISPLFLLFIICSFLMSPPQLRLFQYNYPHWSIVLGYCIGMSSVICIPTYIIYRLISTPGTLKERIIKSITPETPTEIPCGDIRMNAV

- compound: "Oc1ccc(CN2C3CCC2CC(CCOC(c2ccc(F)cc2)c2ccc(F)cc2)C3)cc1 (centres undefined)"
  Ki / nM: 809
- compound: "Oc1cccc(CN2C3CCC2CC(CCOC(c2ccc(F)cc2)c2ccc(F)cc2)C3)c1 (centres undefined)"
  Ki / nM: 651
- compound: "Fc1ccc(C(OCC=C2CC3CCC(C2)N3Cc2ccccc2)c2ccc(F)cc2)cc1"
  Ki / nM: 2220
- compound: "Clc1ccc(C(OCCC2CC3CCC(C2)N3Cc2ccccc2)c2ccccc2)cc1 (centres undefined)"
  Ki / nM: 1940
- compound: "Fc1ccc(C(OCC[C@H]2C[C@H]3CC[C@@H](C2)N3CCCc2ccccc2)c2ccc(F)cc2)cc1"
  Ki / nM: 175
- compound: "Clc1ccc(C(OCCC2CC3CCC(C2)N3CCCc2ccccc2)c2ccccc2)cc1 (centres undefined)"
  Ki / nM: 374
- compound: "Clc1ccc(C(OCCC2CC3CCC(C2)N3CCCc2ccccc2)c2ccc(Cl)cc2)cc1 (centres undefined)"
  Ki / nM: 177
- compound: "CN1C2CCC1CC(CCOC(c1ccc(Cl)cc1)c1ccc(Cl)cc1)C2 (centres undefined)"
  Ki / nM: 1160
- compound: "CN1[C@@H]2CC[C@H]1C[C@@H](CCOC(c1ccccc1)c1ccccc1)C2"
  Ki / nM: 14100
